FYI, the data here is from patent US20250011288A1.

# System Name: human RXFP1 (Homo sapiens, UniProt Q9HBX9)
# Assay Protocol: human RXFP1 (hRXFP1) HEK293 cAMP assay (HTRF)
# Settings: HEK293 cells stably expressing human RXFP1, 30 min at room temperature
pEC50: −log10 of the molar value.
Test Readout: pEC50

COc1ncc(C2=NOC3CC(CO)CC23)cc1C(=O)N[C@H]1[C@@H](C(=O)Nc2ccc(F)c(C(F)(F)F)c2)[C@H]2CC[C@@H]1/C2=C\c1cscn1 (stereo partly shown) [Example 97] = 8.51
COc1ncc(C2=NOC3CN(CC(O)C(F)(F)F)CC23)cc1C(=O)N[C@H]1[C@@H](C(=O)Nc2ccc(F)c(C(F)(F)F)c2)[C@H]2CC[C@@H]1/C2=C\C1CC1 (stereo partly shown) [Example 180] = 8.37
COc1cc2c(cc1C(=O)N[C@@H]1C3CCC(/C3=C/C3CC3)[C@@H]1C(=O)Nc1ccc(F)c(C(F)(F)F)c1)CCN(CCS(C)(=O)=O)C2 (stereo partly shown) [Example 92] = 5.32
COc1ccc(-c2cc([C@H](OC(=O)Nc3ccccc3)C(F)(F)F)ccc2F)nc1C(=O)N[C@@H]1C2CCC(/C2=C/C(F)(F)F)[C@@H]1C(=O)Nc1ccc(F)c(C(F)(F)F)c1 (stereo partly shown) [Example 39] = 6.96
COc1ncc(C2=NOC3CC(C(O)C(F)(F)F)CC23)cc1C(=O)N[C@H]1[C@@H](C(=O)Nc2ccc(F)c(C(F)(F)F)c2)[C@H]2CC[C@@H]1/C2=C\CC(O)C(F)(F)F (stereo partly shown) [Example 129] = 8.30

A. COc1ncc(C2=NO[C@H]3C[C@H](C#N)CN23)cc1C(=O)N[C@@H]1C2CCC(/C2=C/C2CC2)[C@@H]1C(=O)Nc1ccc(F)c(C(F)(F)F)c1 (stereo partly shown) [Example 134]
B. COc1ncc(Br)cc1C(=O)N[C@@H]1C2CCC(C2=C(C)C)[C@@H]1C(=O)Nc1ccc(F)c(C(F)(F)F)c1 (stereo partly shown) [Example 1]
C. O=C(N[C@@H]1C2CCC(/C2=C/C2CC2)[C@@H]1C(=O)Nc1ccc(F)c(C(F)(F)F)c1)c1cncc(C2=NOC3COCC23)c1 (single isomer, unassigned) [Example 62]
## Input Write the entries in order, lowest recorded pEC50 first. Write the labels in rank order as requested.
## Output C, B, A
(C: 5.62, B: 6.15, A: 8.49)

A. COc1ncc(C2=NOC3CC(C(OC(=O)Nc4ccccc4)C4CC4)CC23)cc1C(=O)N[C@@H]1C2CCC(/C2=C/C2CCCC2)[C@@H]1C(=O)Nc1ccc(F)c(C(F)(F)F)c1 (stereo partly shown) [Example 162]
B. COc1ncc(-c2cccc(C(=O)O)c2)cc1C(=O)N[C@@H]1C2CCC(/C2=C/C(F)(F)F)[C@@H]1C(=O)Nc1ccc(F)c(C(F)(F)F)c1 (stereo partly shown) [Example 29]
C. COc1ncc(-c2cc([C@H](OC(=O)NC3CC3)C(F)(F)F)ccc2F)cc1C(=O)N[C@@H]1C2CCC(/C2=C/C2CCCC2)[C@@H]1C(=O)Nc1ccc(F)c(C(F)(F)F)c1 (stereo partly shown) [Example 164]
D. CC(O)C1CC2ON=C(c3cc4c(c(C(=O)N[C@H]5[C@@H](C(=O)Nc6ccc(F)c(C(F)(F)F)c6)[C@H]6CC[C@@H]5/C6=C\C5CC5)c3)OC(C)(C)C4)C2C1 (stereo partly shown) [Example 175]
E. CCCc1cnc(OC)c(C(=O)N[C@@H]2C3CCC(/C3=C/C(F)(F)F)[C@@H]2C(=O)Nc2ccc(F)c(C(F)(F)F)c2)c1 (stereo partly shown) [Example 51]
## Input hey, can you rank those compounds up there by pEC50? biggest number first please Rank them, then answer with their labels in that order.
## Output C, A, D, B, E

P. COc1ncc(C2=NOC3CC(O)CC23)cc1C(=O)N[C@H]1[C@@H](C(=O)Nc2ccc(F)c(C(F)(F)F)c2)[C@H]2CC[C@@H]1/C2=C\C1CCCC1 (stereo partly shown) [Example 126]
Q. COc1ncc(C2=NOC3CN(CCS(C)(=O)=O)CC23)cc1C(=O)N[C@H]1[C@@H](C(=O)Nc2ccc(F)c(C(F)(F)F)c2)[C@H]2CC[C@@H]1/C2=C\C1CC1 (stereo partly shown) [Example 178]
R. COc1nccnc1C(=O)N[C@@H]1C2CCC(C2=C(C)C)[C@@H]1C(=O)Nc1ccc(F)c(C(F)(F)F)c1 (stereo partly shown) [Example 7]
S. COc1cc2c(cc1C(=O)N[C@H]1[C@@H](C(=O)Nc3ccc(F)c(C(F)(F)F)c3)[C@H]3CC[C@@H]1/C3=C\C1CC1)CN(S(C)(=O)=O)CC2 [Example 89]
## Input Please list these in order of increasing pEC50. Thank you! Record the ranking as a list of labels in the requested order.
## Output R, S, P, Q

P. COc1ncc(-c2c(C)nn3c2COCC3)cc1C(=O)N[C@H]1[C@@H](C(=O)Nc2ccc(F)c(C(F)(F)F)c2)[C@H]2CC[C@@H]1/C2=C\C1CCCC1 [Example 150]
Q. O=C(N[C@@H]1C2CCC(/C2=C/C(F)(F)F)[C@@H]1C(=O)Nc1ccc(F)c(C(F)(F)F)c1)c1cnn2c(C(F)F)cc(Cl)cc12 (stereo partly shown) [Example 13]
## Input Out of P and Q , name the one with the higher pEC50. Answer = label.
## Output P

###

# System Name: human RXFP1 (Homo sapiens)
# Sequence (Q9HBX9 1-757): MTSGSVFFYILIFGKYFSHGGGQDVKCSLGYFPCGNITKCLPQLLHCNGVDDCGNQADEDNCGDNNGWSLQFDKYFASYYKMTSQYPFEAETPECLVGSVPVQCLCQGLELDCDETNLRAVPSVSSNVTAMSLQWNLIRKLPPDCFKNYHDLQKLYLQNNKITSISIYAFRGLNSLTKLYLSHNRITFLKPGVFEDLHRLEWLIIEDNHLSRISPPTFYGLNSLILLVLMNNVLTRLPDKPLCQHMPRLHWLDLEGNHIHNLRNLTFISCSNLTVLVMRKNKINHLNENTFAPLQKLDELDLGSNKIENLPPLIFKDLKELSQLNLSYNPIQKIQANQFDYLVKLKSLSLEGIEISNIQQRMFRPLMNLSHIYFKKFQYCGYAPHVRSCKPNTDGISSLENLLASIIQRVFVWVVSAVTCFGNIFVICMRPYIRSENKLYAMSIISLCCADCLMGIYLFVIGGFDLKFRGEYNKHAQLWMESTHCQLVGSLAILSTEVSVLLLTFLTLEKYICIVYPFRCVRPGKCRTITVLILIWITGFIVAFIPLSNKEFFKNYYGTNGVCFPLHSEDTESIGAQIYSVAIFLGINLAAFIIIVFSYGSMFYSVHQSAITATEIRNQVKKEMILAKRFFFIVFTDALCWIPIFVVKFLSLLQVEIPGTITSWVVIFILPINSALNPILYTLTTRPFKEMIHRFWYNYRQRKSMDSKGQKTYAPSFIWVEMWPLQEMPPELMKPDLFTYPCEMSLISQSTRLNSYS
# Assay Protocol: human RXFP1 (hRXFP1) HEK293 cAMP assay (HTRF)
# Settings: HEK293 cells stably expressing human RXFP1, 30 min at room temperature
Test Readout: EC50 (nM)

COc1ncc(C2=NOC3CC(CO)CC23)cc1C(=O)N[C@H]1[C@@H](C(=O)Nc2ccc(F)c(C(F)(F)F)c2)[C@H]2CC[C@@H]1/C2=C\c1cscn1 (stereo partly shown) [Example 96] = 1.4
COc1ncc(C2=NOC3CC(CO)CC23)cc1C(=O)N[C@@H]1C2CCC(/C2=C/C2CC2)[C@@H]1C(=O)Nc1ccc(F)c(C(F)(F)F)c1 (single isomer, unassigned) [Example 67] = 300

1. CC1Cc2cc(C3=NOC4CC(O)CC34)cc(C(=O)N[C@@H]3C4CCC(/C4=C/C4CC4)[C@@H]3C(=O)Nc3ccc(F)c(C(F)(F)F)c3)c2O1 (stereo partly shown)
2. CNC(=O)O[C@@H](c1ccc(F)c(-c2cnc(OC)c(C(=O)N[C@@H]3C4CCC(/C4=C/C4CC4)[C@@H]3C(=O)Nc3ccc(F)c(C(F)(F)F)c3)c2)c1)C(F)(F)F (stereo partly shown)
## Input I'm curious whether 1 or 2 has the smaller EC50 number. Which is it? Lab note: record the label of whichever item you select.
## Output 2

I. CC(C)(O)CN1CC2ON=C(c3cc4c(c(C(=O)N[C@H]5[C@@H](C(=O)Nc6ccc(F)c(C(F)(F)F)c6)[C@H]6CC[C@@H]5/C6=C\C5CC5)c3)OC(C)(C)C4)C2C1 (stereo partly shown)
II. COc1ncc(C2=NOC3CC(C(N)=O)CC23)cc1C(=O)N[C@H]1[C@@H](C(=O)Nc2ccc(F)c(C(F)(F)F)c2)[C@H]2CC[C@@H]1/C2=C\C1CC1 (single isomer, unassigned) [Example 65]
III. COc1ncc(C2=NO[C@@H]3C[C@H](CO)CN23)cc1C(=O)N[C@@H]1C2CCC(/C2=C/C2CC2)[C@@H]1C(=O)N[C@H](C)C1(C)CC1 (stereo partly shown)
IV. COc1cc2c(cc1C(=O)N[C@H]1[C@@H](C(=O)Nc3ccc(F)c(C(F)(F)F)c3)[C@H]3CC[C@@H]1/C3=C\C1CC1)CCN(CCCO)C2
## Input // sort entries: EC50, high to low Labels, requested order.
## Output IV, II, I, III
(IV: 2400 nM, II: 21 nM, I: 6.5 nM, III: 1.8 nM)
